Test system: NCI-H23 lung
Experiment: NCI tumour cell line growth inhibition, 48 h
MEASUREMENT KIND: GI50

Field: example entries. Status: answers known.
C[As](C)Sc1ccnc(S[As](C)C)n1	6.79 µM
O=C(c1ccccc1)c1ccc(Cl)c([N+](=O)[O-])c1	16.2 µM

Record GI50 per entry; entries follow.
1. CCOCCc1c(O)nc(SC)[nH]c1=O
2. CCCCCCCCCCCCOC1C(CNC(=O)C2OC3OC(C)(C)OC3C2NC(=O)CN2CCN(c3ccccn3)CC2)OC2OC(C)(C)OC21 (centres undefined)

Return:
["> 100 µM", "4.16 µM"]
